# System: K4 kissing-loop RNA reporter;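 note: bound reporter read as fluorescence of individual clusters on recovered sequencing chips by microscopy, with normalized cluster intensities fitted with a binding model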
# PROTOCOL SUMMARY: apparent KD of K4 kissing-loop reporter; higher = weaker reporter binding
# EXPERIMENTAL CONTEXT: Eterna round: R107; input ligand: arginine 13.2 mM
MEASURED QUANTITY: apparent KD of K4 kissing-loop reporter (nM)

>>> assay_value("ACGUCCGGAUUGAUCGUGGGCAUGGUCGAUACCAGUAGUUUAAUCUACCCUUGGCAGCGACAUGAGUGAUGUUCAUGUGCGGUGA [#14 K4 Theophylline A Exclusion]")
191
>>> assay_value("AGGGCACUGGCGGCCGCCACUUUUCGUGCGAACCAAAGCUAGUGAUGUUGGCUCCCUAGUUGCAAAAGGACCGGGCCGUUCAUCU [theeternabot_sameState_KL_Trp_B_37]")
195
>>> assay_value("GAGGUAUGCGCAGUGAUGUUGCGACGAGAUACCAGUCGUUCUGUCGACCCUUGGCAGCUCCCACCAGACGUACGAGUUUGUGUUG [theeternabot_sameState_KL_Theo_A_10]")
111
>>> assay_value("GUCUGCGUCUCGGCCGCCACUCACUAGUGAUGUUAGUAAGGAGCGACUAGAGAAGUCCAGUUAAUGAGGACCGGGAGAAGCUCUU [Exclusion Tryptophan B GF 3]")
133
>>> assay_value("CAACGAGUGAUGGUCGUUGACGGCCAUCCCGAGGAUAUGGGAUUUUCCAGAAGGCGGGAUCGCCCGGAGUGAUGUUCCGUGAUUU [Same State FMN A GF 15]")
228
